Target: T1, biotin-Aβ1-20 (biotin (position not given))
T1 peptide: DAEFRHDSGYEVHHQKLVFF
Assay: BIACORE, biotin-Aβ1-20 as antigen; column Fab
pKd: −log10 of the molar value.

| Binder | pKd |
| --- | --- |
| 20C2-2A Fab fragment (clone SJ-p1-18) (Fab, V domains shown) VH: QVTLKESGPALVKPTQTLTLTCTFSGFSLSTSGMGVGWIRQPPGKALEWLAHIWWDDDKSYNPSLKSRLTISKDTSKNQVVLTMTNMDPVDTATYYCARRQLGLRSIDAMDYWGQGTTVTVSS VL: DVVMTQSPLSLPVTPGEPASISCRSSQSILHSNGNTYLEWYLQKPGQSPQLLIYKVSNRFSGVPDRFSGSGSGTDFTLKISRVEAEDVGVYYCFQATRVPLTFGQGTKLEIKR | 7.55 |
| Fab of mouse 20C2 (Fab, V domains shown, also called Mouse-20C2 (Fab column)) VH: QVTLKESGPGILKPSQTLSLTCSLSGFSLSTSGMGVGWFRQPSGKGLEWLAHIWWDDDKSYNPSLKSRLTISKYTSRNQVFLTITSVDTADTATYYCARRQLGLRSIDAMDYWGQGTSVTVSS VL: DVLMTQTPLSLPVSLGDQASISCRSSQSILHSNGNTYLEWYLQKPGQSPKLLIYKVSNRFSGVPDRFSGSGSGTDFTLKISRVEAEDLGVYYCFQGSLVPLTFGAGTKLELK | 7.08 |
| 20C2-1A Fab fragment (clone SJ-p2-60) (Fab, V domains shown) VH: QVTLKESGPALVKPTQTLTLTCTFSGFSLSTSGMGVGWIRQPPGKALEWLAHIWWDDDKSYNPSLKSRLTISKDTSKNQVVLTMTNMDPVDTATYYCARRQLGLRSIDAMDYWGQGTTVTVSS VL: DVVMTQSPLSLPVTPGEPASISCRSSQSILHSNGNTYLEWYLQKPGQSPQLLIYKVSNRFSGVPDRFSGSGSGTDFTLKISRVEAEDVGVYYCFQASRVPLTFGQGTKLEIKR | 7.04 |
